molecular target: Aromatase (Homo sapiens) (UniProt P11511); test: qHTS assay to identify aromatase inhibitors (AID 743083); details: MCF-7 aro ERE, testosterone-driven ERE luciferase, 24 h; series mostly up to 70.3 µM; also: nearly all actives have a fitted effect of over 55% in size; also: potency is read from the fitted curve at half-maximal effect
Sequence (P11511 whole entry, looked up): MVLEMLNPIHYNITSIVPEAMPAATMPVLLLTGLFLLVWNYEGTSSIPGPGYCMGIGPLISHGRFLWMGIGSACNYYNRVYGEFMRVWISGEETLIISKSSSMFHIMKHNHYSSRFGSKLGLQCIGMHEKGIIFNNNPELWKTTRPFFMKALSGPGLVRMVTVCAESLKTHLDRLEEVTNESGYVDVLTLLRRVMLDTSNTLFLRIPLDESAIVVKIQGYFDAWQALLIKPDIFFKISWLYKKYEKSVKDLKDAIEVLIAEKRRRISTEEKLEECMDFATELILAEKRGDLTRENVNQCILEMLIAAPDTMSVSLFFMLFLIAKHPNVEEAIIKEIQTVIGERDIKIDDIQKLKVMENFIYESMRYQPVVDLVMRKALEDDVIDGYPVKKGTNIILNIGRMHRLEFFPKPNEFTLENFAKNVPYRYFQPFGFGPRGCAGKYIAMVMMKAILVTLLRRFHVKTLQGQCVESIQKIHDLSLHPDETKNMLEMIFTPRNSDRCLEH
Records with an inconclusive call do not appear. Activity calls are given as the source filed them. Calls follow the shape of the dose curve; as a rule, active = well fitted inhibition curve with a large enough effect in the repeat runs; inconclusive = weak or mixed curves; inactive = no such curve, though single readings can be large or run the other way.
PROPERTY NAME: Potency

Some solved entries appear below for comparison.
O=C(Oc1cccc2cccnc12)c1ccccc1 = 18.8 µM (active)
COc1cc(-c2nc(NC(=O)c3cc4cc(C)cc(C)c4n3CC(=O)O)sc2CCC2CCCCC2)c(OC)cc1Cl = 25 µM (active)
CCC(Cl)C(Cl)C(Cl)CC(Cl)C(Cl)C(C)Cl (stereo not drawn) = inactive
CC(C)OC(=O)c1cc2c(OCC(O)CNC(C)(C)C)cccc2[nH]1 (stereo not drawn) = inactive
C=CC(=O)OCCn1c(=O)n(CCOC(=O)C=C)c(=O)n(CCOC(=O)C=C)c1=O = 13.7 µM (active)

Parameters: items (list). Returns: Potency for each item.
1. NNc1nc(-c2ccc([N+](=O)[O-])cc2)cs1
2. C[n+]1cc2c3c(ccc2c2ccc4cc5c(cc4c21)OCO5)OCO3
3. COCCCC/C(=N\OCCN)c1ccc(C(F)(F)F)cc1
4. Cc1cccc2c1cc1ccc3cccc4ccc2c1c34
5. CC(C)(C)c1ccc(C(=O)O)cc1
6. CCCCC(CC)COP(=O)(O)OCC(CC)CCCC (stereo not drawn)
7. CC(C)c1ccc2c(c1)CC[C@H]1[C@](C)(CN)CCC[C@]21C

["43.3 µM (active)", "11.9 µM (active)", "21.1 µM (active)", "inactive", "inactive", "inactive", "19.3 µM (active)"]

Parameters: items (list). Returns: Potency for each item.
1. N=C1C=CC(=C(c2ccc(N)cc2)c2ccc(N)cc2)C=C1
2. COc1cccc2c1C(=O)c1c(O)c3c(c(O)c1C2=O)C[C@@](O)(C(=O)CO)C[C@@H]3O[C@H]1C[C@H](N)[C@H](O[C@@H]2CCCCO2)[C@H](C)O1
3. CCC1=C[C@@H]2CN(C1)Cc1c([nH]c3ccccc13)[C@@](C(=O)OC)(c1cc3c(cc1OC)N(C)[C@H]1[C@@](O)(C(=O)OC)[C@H](OC(C)=O)[C@]4(CC)C=CCN5CC[C@]31[C@@H]54)C2

["4.86 µM (active)", "inactive", "inactive"]

Parameters: items (list). Returns: Potency for each item.
1. CCC(N)(CO)CO
2. CN(C)[C@@H]1C(=O)C(C(N)=O)=C(O)[C@@]2(O)C(=O)C3=C(O)c4c(O)ccc(Cl)c4[C@@H](O)[C@H]3C[C@@H]12
3. CCCCCCCCNC(C)C(O)c1ccc(SC(C)C)cc1 (stereo not drawn)
4. CCOC(=O)c1nc(C(Cl)(Cl)Cl)n(-c2ccc(Cl)cc2Cl)n1
5. Oc1c(Cl)cc(Cl)c2cccnc12
6. Fc1ccc(C(c2ccc(F)cc2)N2CCN(C/C=C/c3ccccc3)CC2)cc1

inactive
inactive
29.8 µM (active)
61.1 µM (active)
11.9 µM (active)
inactive

Parameters: items (list). Returns: Potency for each item.
1. CS(=O)(=O)CCNCc1ccc(-c2ccc3ncnc(Nc4ccc(OCc5cccc(F)c5)c(Cl)c4)c3c2)o1
2. CCN1/C(=C/C=C/c2sc3ccccc3[n+]2CC)Sc2ccccc21

1: inactive; 2: 1.5 µM (active)

All values here come from PubChem BioAssay (Tox21).
